# PROTOCOL_SUMMARY: endothelial E-selectin expression blockers – imaging, HUVEC, immunofluorescence, MLSMR starter and 10KST1 sets, primary screen (AID 487);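 also: signal is fraction of cell area covered by stained E-selectin grains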
# REPORTED_CONDITIONS: HUVEC TNFalpha-induced E-selectin immunofluorescence imaging, at 2 µM; hits give high values
TEST_READOUT: inhibition (%)
Give just the number in %; leave the unit off.

CC1=C(C(=O)NCc2ccco2)C2(CCC(C)CC2)OC1=O (stereo not drawn)	-20.5
CCOC(=O)N1CCN(C(=O)COc2ccc(S(=O)(=O)NC3CCCCC3)cc2C)CC1	-31.8
CCOc1cccc2cc(C(=O)N3CCN(C/C=C/c4ccccc4)CC3)c(=O)oc12	-80.4

Field request: inhibition | item: Cc1nc2ccccc2c2oc(C(=O)N3CCN(C(=O)c4ccco4)CC3)cc12
4.8

Field request: inhibition | item: COc1ccccc1NC(=O)N(C1CCCC1)C1CCN(C(C)=O)CC1
-61.6

Field request: inhibition | item: COc1ccc(Cn2nnnc2C(c2cc3cc(C)cc(C)c3[nH]c2=O)N2CCOCC2)cc1 (stereo not drawn)
-9.5

Field request: inhibition | item: CCOC(=O)Cn1nnnc1C(C(C)C)N(Cc1cc2c(C)cc(C)cc2[nH]c1=O)C1CCCC1 (stereo not drawn)
39.1

Field request: inhibition | item: c1ccc(CCn2nnnc2CN2CCN(C3CCCC3)CC2)cc1
-40.7

---

This section presents compounds with their documented NADPH fluorescence slope values.
# TESTED_SYSTEM: Voltage-gated potassium channel subunit beta-2 (Rattus norvegicus)
# PROTOCOL_SUMMARY: enhancers of rat Kvbeta2 NADPH turnover – biochemical, NADPH fluorescence, primary screen (AID 623);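 also: fluorescence intensity change per second fitted from 20 to 320 s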
# REPORTED_CONDITIONS: Recombinant KvBeta, NADPH fluorescence decrease slope, 10 min; at 10 µM; hits give low values
Reply briefly: the number, and no unit.

Some solved cases for reference:
O=C(CSc1nc2c(c(=O)n1-c1ccc(F)cc1)SCC2)NCC1CCCO1 (stereo unspecified)	-5.5e-05
CCCCC(=O)Nc1ccc(NC(=O)C2CC2)nc1	-6e-05
Cc1nc2c(-c3ccc(F)cc3)c(C)nn2c(C)c1CCC(=O)NC(C)CCc1ccco1 (stereo unspecified)	-3.3e-05
CCOC(=O)Cc1cc(=O)n2[nH]c(C)c(-c3ccc(OC)cc3)c2n1	1.1e-05
O=C(C(c1ccccc1)c1ccccc1)N1CCN(Cc2ccccn2)CC1	-1.3e-05
Cc1ccc(C)c2[nH]c(=O)c(CCNC(=O)CC(C)(C)C)cc12	-5.3e-05

Query compound follows.
Field request: NADPH fluorescence slope | item: O=C(NCc1cccs1)c1cc2c(s1)-c1ccccc1OC2
-3.3e-06

---

# TESTED_SYSTEM: Voltage-gated potassium channel subunit beta-2 (Rattus norvegicus) (UniProt P62483)
# Sequence (P62483 whole entry, looked up): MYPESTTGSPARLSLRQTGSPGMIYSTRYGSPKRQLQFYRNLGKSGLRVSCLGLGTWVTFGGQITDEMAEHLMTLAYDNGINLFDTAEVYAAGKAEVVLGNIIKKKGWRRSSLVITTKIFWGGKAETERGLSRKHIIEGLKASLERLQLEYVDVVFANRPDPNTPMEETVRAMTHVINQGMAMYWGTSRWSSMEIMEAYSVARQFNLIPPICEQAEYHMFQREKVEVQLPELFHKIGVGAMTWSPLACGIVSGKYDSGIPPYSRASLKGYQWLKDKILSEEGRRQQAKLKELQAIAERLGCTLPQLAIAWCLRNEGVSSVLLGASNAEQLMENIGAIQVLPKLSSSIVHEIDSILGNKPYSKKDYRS
# PROTOCOL_SUMMARY: enhancers of rat Kvbeta2 NADPH turnover – biochemical, NADPH fluorescence, primary screen (AID 623);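 also: fluorescence intensity change per second fitted from 20 to 320 s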
# REPORTED_CONDITIONS: Recombinant KvBeta, NADPH fluorescence decrease slope, 10 min; at 10 µM; hits give low values
TEST_READOUT: NADPH fluorescence slope
Reply briefly: the number, and no unit.

Some solved cases for reference:
O=S(=O)(c1ccc(Oc2ccc(-c3nnco3)cc2)nc1)N1CCC(Cc2ccccc2)CC1	-5e-05
O=c1c(CN2CCN(Cc3ccccc3)CC2)coc2ccc(Cl)cc12	-0.000112
CC(=NCC1CCNCC1)C1=C(O)CC(C)(C)CC1=O	4e-06

Field request: NADPH fluorescence slope | item: CCCC(=O)Nc1ccc2oc(-c3cccnc3)nc2c1
-1.1e-05

Field request: NADPH fluorescence slope | item: CN(C1CCCCC1)S(=O)(=O)c1ccc(NC(=O)c2ccco2)cc1
-4.1e-05

Field request: NADPH fluorescence slope | item: COCCn1c(-c2ccco2)nc2nc3ccccc3nc21
-2.3e-05

Field request: NADPH fluorescence slope | item: Cc1cccc(C(OC(=O)c2ccco2)C(=O)NCc2ccccc2)n1 (stereo unspecified)
-1.3e-05

Field request: NADPH fluorescence slope | item: O=C(O)CC1NC(=O)N(c2ccccc2)C1=O (stereo unspecified)
1.8e-06

Field request: NADPH fluorescence slope | item: O=C1C(Cl)=C(NCC2CCCO2)C(=O)N1CCc1ccccc1 (stereo unspecified)
1.5e-05

Field request: NADPH fluorescence slope | item: COc1ccc(OC)c(NC(=O)CSc2nnc(Cc3cccn3C)n2-c2ccc(F)cc2)c1
1.6e-05

Field request: NADPH fluorescence slope | item: Cc1nc2sc(C(c3ccccc3)N3CCN(c4ccccc4F)CC3)c(O)n2n1 (stereo unspecified)
0.000106

# credit: PubChem BioAssay
